% of organ targeting for assorted molecules
- Test system: mice
- Test name: In vivo delivery of FLuc-mRNA lipid nanoparticles in mice, in vivo imaging (IVIS)
- Condition label: Fluc-mRNA LNP; route IV; organ: lung; formulation, molar ratio and N/P as in the table

{"columns": ["Molecule", "Units symbol", "% of organ targeting"],
 "data": [
  ["CCCCCCCCCCCCNC(=O)C(CN(CCCN(C)CCCN(CC(OC(C)=O)C(=O)NCCCCCCCCCCCC)CC(OC(C)=O)C(=O)NCCCCCCCCCCCC)CC(OC(C)=O)C(=O)NCCCCCCCCCCCC)OC(C)=O (stereo not shown)", "%", 1.64],
  ["CCCCCCCCC(CCCCCC)C(=O)OCCCCNC(=O)C(O)CN(CCCN(C)CCCN(CC(O)C(=O)NCCCCOC(=O)C(CCCCCC)CCCCCCCC)CC(O)C(=O)NCCCCOC(=O)C(CCCCCC)CCCCCCCC)CC(O)C(=O)NCCCCOC(=O)C(CCCCCC)CCCCCCCC (stereo not shown)", "%", 20.78],
  ["CCCCCCCCN(C)C(=O)C(O)CN(CCN(C)CCN(CC(O)C(=O)N(C)CCCCCCCC)CC(O)C(=O)N(C)CCCCCCCC)CC(O)C(=O)N(C)CCCCCCCC (stereo not shown)", "%", 8.93],
  ["CCCCCCCCC(CCCCCC)C(=O)OCCCCCCNC(=O)C(O)CN(CCN(C)CCN(CC(O)C(=O)NCCCCCCOC(=O)C(CCCCCC)CCCCCCCC)CC(O)C(=O)NCCCCCCOC(=O)C(CCCCCC)CCCCCCCC)CC(O)C(=O)NCCCCCCOC(=O)C(CCCCCC)CCCCCCCC (stereo not shown)", "%", 8.29]
]}

----------
% of organ targeting for assorted molecules
- System: mice
- Test name: In vivo delivery of FLuc-mRNA lipid nanoparticles in mice, in vivo imaging (IVIS)
- Condition label: Fluc-mRNA LNP; route IV; organ: lung; formulation, molar ratio and N/P as in the table

{"columns": ["Molecule", "Assayed target", "Units symbol", "% of organ targeting"],
 "data": [
  ["CCCCCCCCC(CCCCCC)C(=O)OCCCCCCNC(=O)C(O)CN(CCCN(C)CCCN(CC(O)C(=O)NCCCCCCOC(=O)C(CCCCCC)CCCCCCCC)CC(O)C(=O)NCCCCCCOC(=O)C(CCCCCC)CCCCCCCC)CC(O)C(=O)NCCCCCCOC(=O)C(CCCCCC)CCCCCCCC (stereo not shown) [Compound L0370]", "mice", "%", 17.97],
  ["CCCCCCCCN(C)C(=O)C(O)CN(CCCN(CC(O)C(=O)N(C)CCCCCCCC)CC(O)C(=O)N(C)CCCCCCCC)CCCN(CC(O)C(=O)N(C)CCCCCCCC)CC(O)C(=O)N(C)CCCCCCCC (stereo not shown) [Compound L0354]", "mice", "%", 1.31],
  ["CCCCCCC(CCCCCC)C(=O)NCCNC(=O)C(O)CN(CCN(C)CCN(CC(O)C(=O)NCCNC(=O)C(CCCCCC)CCCCCC)CC(O)C(=O)NCCNC(=O)C(CCCCCC)CCCCCC)CC(O)C(=O)NCCNC(=O)C(CCCCCC)CCCCCC (stereo not shown) [Compound L0380]", "mice", "%", 0.40],
  ["CCCCCCCCCCOC(=O)CCCNC(=O)C(O)CN(CCCN(C)CCCN(CC(O)C(=O)NCCCC(=O)OCCCCCCCCCC)CC(O)C(=O)NCCCC(=O)OCCCCCCCCCC)CC(O)C(=O)NCCCC(=O)OCCCCCCCCCC (stereo not shown) [Compound L0385]", "mice", "%", 98.40]
]}
